# target_entity: Human plasma kallikrein (Homo sapiens (Human))
# Sequence (P03952 391-638): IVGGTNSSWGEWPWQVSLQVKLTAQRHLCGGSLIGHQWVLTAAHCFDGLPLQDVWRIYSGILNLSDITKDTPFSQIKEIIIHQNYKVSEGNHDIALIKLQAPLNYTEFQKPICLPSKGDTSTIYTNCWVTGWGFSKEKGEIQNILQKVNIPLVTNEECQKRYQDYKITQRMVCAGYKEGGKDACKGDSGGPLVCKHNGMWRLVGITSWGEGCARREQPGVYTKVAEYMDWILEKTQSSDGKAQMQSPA
# Sequence (P03952 20-390): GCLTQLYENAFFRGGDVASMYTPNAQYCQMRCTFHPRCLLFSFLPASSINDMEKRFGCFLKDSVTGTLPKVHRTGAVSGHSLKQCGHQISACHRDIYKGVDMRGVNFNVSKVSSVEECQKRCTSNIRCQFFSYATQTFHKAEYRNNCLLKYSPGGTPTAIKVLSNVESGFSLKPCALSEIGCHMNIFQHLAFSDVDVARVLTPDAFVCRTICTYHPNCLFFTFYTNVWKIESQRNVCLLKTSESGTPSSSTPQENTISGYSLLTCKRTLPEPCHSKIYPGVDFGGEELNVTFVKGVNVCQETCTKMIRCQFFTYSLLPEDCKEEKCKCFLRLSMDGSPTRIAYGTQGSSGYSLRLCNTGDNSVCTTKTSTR
# test_method_notes: Determination of the Ki for plasma kallikrein (mixed-model inhibition)
# Type: biochemical
# condition_label: parameter of the mixed-model equation indicating mechanism of inhibition
measured_quantity: Alpha

Examples with their reported Alpha follow.
COCc1nn(Cc2cnc(N3CCCC3)nc2)cc1C(=O)NCc1cc(OC)ccc1-n1cnnn1 [Example 80]; 14.8
COCc1nn(Cc2ccc(Cn3ccccc3=O)cc2)cc1C(=O)NCc1nccc(OC)c1C [Example 22]; 29
COCc1nn(Cc2ccc(Cn3ccccc3=O)cc2)cc1C(=O)NCc1cc(OC)ccc1-n1cnnn1 [Example 40]; 2.2
COCc1nn(Cc2ccc(Cn3ccccc3=O)cc2)cc1C(=O)NCc1c(-n2cnnn2)ccc(OC)c1F [Example 39]; 1.7
COCc1nn(Cc2ccc(N3CCCC3)nc2)cc1C(=O)NCc1c(-n2cnnn2)ccc(OC)c1F [Example 77]; 4.2

I: COCc1nn(Cc2ccc(Cn3ccccc3=O)cc2)cc1C(=O)NCc1cc(Cl)ccc1-n1cnnn1 [Example 72]
II: COCc1nn(Cc2ccc(Cn3ccccc3=O)cc2)cc1C(=O)NCc1c(F)cccc1-n1cnnn1 [Reference Example H, reference compound]
Please choose the item with the lower Alpha value from this pair: I and II Use the label to indicate which entry you chose.
I

* * *

Lab note: IC50 readings collected with Human FXIa (Homo sapiens (Human), UniProt P03951) for the following molecules.
Sequence (P03951 388-625): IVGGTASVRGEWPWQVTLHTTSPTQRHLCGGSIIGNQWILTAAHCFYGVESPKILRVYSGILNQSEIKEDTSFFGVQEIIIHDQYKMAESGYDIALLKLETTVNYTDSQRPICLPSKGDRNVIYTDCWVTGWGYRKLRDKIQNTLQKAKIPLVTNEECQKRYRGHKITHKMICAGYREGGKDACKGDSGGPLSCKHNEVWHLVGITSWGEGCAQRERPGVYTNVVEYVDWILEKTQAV
Sequence (P03951 19-387): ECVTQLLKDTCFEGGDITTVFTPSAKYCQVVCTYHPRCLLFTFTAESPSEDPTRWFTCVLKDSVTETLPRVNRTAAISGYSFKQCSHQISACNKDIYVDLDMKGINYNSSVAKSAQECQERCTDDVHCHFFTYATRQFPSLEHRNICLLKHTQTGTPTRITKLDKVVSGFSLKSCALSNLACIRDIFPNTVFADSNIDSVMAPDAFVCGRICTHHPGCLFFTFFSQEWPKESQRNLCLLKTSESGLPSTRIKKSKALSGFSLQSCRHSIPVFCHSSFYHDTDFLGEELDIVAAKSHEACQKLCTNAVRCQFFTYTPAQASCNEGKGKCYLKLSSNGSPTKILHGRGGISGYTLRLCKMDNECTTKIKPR

COCc1nn(Cc2cnc(N3CCCC3)nc2)cc1C(=O)NCc1cc(OC)ccc1-n1cnnn1; 0.779 µM
COc1ccc(F)c(CNC(=O)c2cn(Cc3ccc(Cn4ccccc4=O)cc3)nc2N)c1F; > 40 µM
COCc1nn(Cc2ccc(Cn3ccccc3=O)cn2)cc1C(=O)NCc1c(C#N)ccc(OC)c1F; > 40 µM
COCc1nn(Cc2ccc(Cn3ccccc3=O)cc2)cc1C(=O)NCc1ncccc1C#N; > 40 µM

Which IC50 reading was recorded for the molecule COCc1nn(Cc2ccc(Cn3ccccc3=O)cc2)cc1C(=O)NCc1ncc(F)cc1F ?
> 40 µM

Could you do the same for COCc1nn(Cc2ccc(Cn3ccccc3=O)cc2)cc1C(=O)NCc1cc(Cl)ccc1-n1cnnn1 , please?
10.6 µM

* * *

# target_entity: Human plasma kallikrein (Homo sapiens (Human))
# test_method_notes: Determination of the IC50 for plasma kallikrein
# condition_label: 25° C., substrate H-DPro-Phe-Arg-AFC; read-out: IC50 (human PKal)
# Experimental: Human plasma kallikrein (Protogen) was incubated at 25° C. with the fluorogenic substrate H-DPro-Phe-Arg-AFC and various concentrations of the test compound. Residual enzyme activity (initial rate of reaction) was determined by measuring the change in […] at 410 nm and the IC50 value for the test compound was determined.
pIC50: −log10 of the molar value.
measured_quantity: pIC50

COCc1nn(Cc2ccc(Cn3ccccc3=O)cc2)cc1C(=O)NCc1cc(OC)ncc1C#N; 6.79

a: COCc1nn(Cc2ccc(Cn3ccccc3=O)cc2)cc1C(=O)NCc1ccccc1-n1cnnn1
b: COCc1nn(Cc2ccc(Cn3ccccc3=O)cc2)cc1C(=O)NCc1cc(OC)ccc1C
c: COc1ccnc(CNC(=O)c2cn(Cc3ccc(Cn4ccccc4=O)cc3)nc2N)c1F
Write the entries in order, lowest recorded pIC50 first. // ordering of labels required in reply
b, a, c

* * *

# test_method_notes: In vitro permeability, Caco-2 model for oral absorption
# Assay type: in vitro ADME
# condition_label: human, apical to basolateral, 50 μM test compound, 37° C.
measured_quantity: Papp at 1 h, 50 μM (×10⁻⁶ cm/s)

// solved cases for Papp at 1 h, 50 μM follow
COCc1nn(Cc2ccc(Cn3cccn3)cc2)cc1C(=O)NCc1cccc(Cl)c1F [Reference Example J, reference compound]; 12
COCc1nn(Cc2ccc(Cn3ccccc3=O)cc2)cc1C(=O)NCc1cc(Cl)ccc1-n1cnnn1; 6
COc1ccc(F)c(CNC(=O)c2cn(Cc3ccc(Cn4ccccc4=O)cc3)nc2N)c1F; 7
COCc1nn(Cc2ccc(N3CCC(F)(F)C3)nc2)cc1C(=O)NCc1c(-n2cnnn2)ccc(OC)c1F; 4
COCc1nn(Cc2cnc(N3CCC(F)(F)C3)nc2)cc1C(=O)NCc1c(-n2cnnn2)ccc(OC)c1F; 16

P: COCc1nn(Cc2ccc(Cn3ccccc3=O)nc2)cc1C(=O)NCc1c(C#N)ccc(OC)c1F
Q: COCc1nn(Cc2ccc(Cn3ccccc3=O)cc2)cc1C(=O)NCc1c(F)cccc1-n1cnnn1 [Reference Example H, reference compound]
R: Nc1nn(Cc2ccc(Cn3ccccc3=O)cc2)cc1C(=O)NCc1cc(Cl)ccc1-n1cnnn1
Task for the reader: rank each entry by its Papp at 1 h, 50 μM, from the minimum upward. In plain terms: list the labels in the order you were asked to.
R, P, Q
(R: 1 ×10⁻⁶ cm/s, P: 5 ×10⁻⁶ cm/s, Q: 12 ×10⁻⁶ cm/s)
